Tested on: HCI01 (cells of a triple-negative basal-like breast cancer xenograft);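 note: PDX cells carrying CMV promoter-driven luciferase, viability read as total photon flux per second by IVIS imaging following D-luciferin, vehicle control 0.1% DMSO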
Test: cell viability (% of vehicle); higher = less cytotoxic
Conditions: 10 µM; 72 h
Measured attribute: cell viability

>  <Compound>
N=C(N)NCCCC[C@@H]1NC(=O)CCSSC[C@@H](C(N)=O)NC(=O)[C@@H]2CCCN2C(=O)[C@H](Cc2c[nH]c3ccccc23)NC(=O)[C@H](CC(=O)O)NC(=O)CNC1=O [Eptifibatide]

>  <Measured attribute>
cell viability

>  <Result>
101

$$$$
>  <Compound>
Cc1c(N(C)C)c(=O)n(-c2ccccc2)n1C

>  <Measured attribute>
cell viability

>  <Result>
99.1

$$$$
>  <Compound>
CC1=NS(=O)(=O)c2cc(Cl)ccc2N1 [Diazoxide]

>  <Measured attribute>
cell viability

>  <Result>
92.6

$$$$
>  <Compound>
Nc1[nH]c(=O)ncc1F

>  <Measured attribute>
cell viability

>  <Result>
106

$$$$
